- PROTOCOL TEXT: NCI Yeast Anticancer Drug Screen. Data for the bub3 strain (AID 167)
- MEASUREMENT CONDITIONS: S. cerevisiae bub3 mutant strain, at 50.0 µM (retest, dose inferred, filed as 5.0)
About 79,000 compounds went through this panel and 15% of them were active in at least one assay; those are over-represented in the sample as a whole. Calls of active or inactive are those of the source. Rule as the data show it: active = growth inhibition above about 70%; inactive = the rest.
// classify into active, inactive

Cc1cc2cccnc2c2ncccc12    active
CCCCCCCCCCCCN1C(C)=CS/C1=C\C=C\c1scc(C)[n+]1CCCCCCCCCCCC    active

Hi, do you know how "O=[N+]([O-])c1ccc(C2N(Cc3ccc(Cl)cc3)CCN2Cc2ccc(Cl)cc2)cc1" came out in this test?
active

// return assay outcome for O=C(c1ccccc1)C(Br)[N+](=O)[O-] (centres undefined)
active

====

- PROTOCOL TEXT: NCI Yeast Anticancer Drug Screen. Data for the mec2-1 strain (AID 157)
- MEASUREMENT CONDITIONS: S. cerevisiae mec2-1 strain, at 50.0 µM, stronger effect = higher value
This is part of a sample that, as a whole, favours compounds with a hit. Of some 79,000 tested, about 15% had one in any assay.
Returns one of T or F; T when growth inhibition is >= 50%.

COC(=O)C(=[N+]=[N-])C(=O)c1ccc([N+](=O)[O-])o1    T

Next item in the queue.
hey, is growth inhibition for this one >= 50%? "N=C1C=C(N)C(=O)c2ccccc21"
T

====

- PROTOCOL TEXT: NCI Yeast Anticancer Drug Screen. Data for the sgs1 mgt1 strain (AID 161);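 also: 0% = growth of cultures given vehicle only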
- MEASUREMENT CONDITIONS: S. cerevisiae sgs1 mgt1 strain, at 50.0 µM, stronger effect = higher value
This is part of a sample that, as a whole, favours compounds with a hit. Of some 79,000 tested, about 15% had one in any assay.
Let's look at some molecules and their measured growth inhibition.
Response body: numeric value in %, unit text excluded.

Here's what some known entries look like.
CC1=C(C2=C(C)C(=O)C(=O)c3cc(C)ccc32)c2ccc(C)cc2C(=O)C1=O    91.8
O=S(=O)(O)c1cnccn1    87.8
O=C(Cc1nc2cc(Cl)c(Cl)cc2nc1CC(=O)c1cccnc1)c1cccnc1    92.6
CCc1cnc2ccccc2c1/C=C/c1ccc(N(C)C)cc1    92.3
Oc1ccccc1N=Cc1ccccc1    60.6

Could you now look at the following molecule, please?
The molecule listed as S=C1NC2=C(COc3ccccc32)C(c2ccc(Cl)cc2)N1 (stereo not drawn) has a reported growth inhibition of 92.5

====

# growth inhibition listing for each entry below
- PROTOCOL TEXT: NCI Yeast Anticancer Drug Screen. Data for the sgs1 mgt1 strain (AID 161);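 also: 0% = growth of cultures given vehicle only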
- MEASUREMENT CONDITIONS: S. cerevisiae sgs1 mgt1 strain, at 5.0 µM (retest, dose inferred, filed as 0.5), stronger effect = higher value
- Description: Growth inhibition of yeast strains with defined genetic alterations is measured as a screen for potential anti-cancer activity. Selected strains with alterations in DNA damage repair or cell cycle control were exposed to compounds and growth inhibition was measured relative to vehicle treated controls. The strain used in this assay is sgs1 mgt1
This is part of a sample that, as a whole, favours compounds with a hit. Of some 79,000 tested, about 15% had one in any assay.
Field format: number, assumed %, no unit text.

Here's what some known entries look like.
CC(C)Nc1ccc(Nc2ccc(NC(C)C)cc2)cc1    -1
CCN(CC)c1ccc(/C=C\C(=O)c2ccc(NC(C)=O)cc2)cc1    -13
Nc1ccc(C(=O)/C=C/c2ccccc2)cc1    11
CCCCC(CCc1ccc([N+](=O)[O-])cc1)(C(C)=O)C(=O)OCC (configuration not stated)    -2
CCOc1cc2c(cc1O)/C(=N\OC)C[C@@H]1[C@@H]2CC[C@]2(C)[C@@H](O)CC[C@@H]12    5
CCCCC(=O)c1ccc([N+](=O)[O-])o1    26
CN=C(N)N/N=C(\C)c1ccc2c(c1)Cc1ccccc1-2    51
CC1=C(/C=C/C(C)=C/C(=O)O)C(C)(C)CCC1    3
Nc1nc2ncc(CNc3ccc(C(=O)NC(CCC(=O)NC(CCC(=O)NC(CCC(=O)NC(CCC(=O)NC(CCC(=O)O)C(=O)O)C(=O)O)C(=O)O)C(=O)O)C(=O)O)cc3)nc2c(=O)[nH]1 (configuration not stated)    0
O=C1C=CC(=O)C2=C1CC=CC2    29

The reported growth inhibition of the molecule "O=C1/C(=C/c2ccccc2)CCC/C1=C\c1ccccc1" was 36

Consider Nc1ncnc2c(C3OC(CO)C(O)C3O)c[nH]c12 (configuration not stated) . Its measured growth inhibition is 35

"CCOS(=O)(=O)CC(C)(C)C" yielded growth inhibition of 8

Recorded growth inhibition (molecule "Cc1cccc2c(N)c3ccccc3nc12" ): 1

So, "O=C(/C=C/c1ccccc1)CCC1C(=O)c2ccccc2C1=O" ? Its growth inhibition was 14

growth inhibition reported for this molecule "CC1=C(C2=C(C)C(=O)C(=O)c3cc(C)ccc32)c2ccc(C)cc2C(=O)C1=O" : 98

Hey, just so you know, these numbers are from PubChem BioAssay (NCI).
